tested on: BT-549 breast; assay: NCI tumour cell line growth inhibition, 48 h
Each entry below lists one item and its recorded TGI value.
MEASUREMENT NAME: TGI

> print(dat)
                           structure.smiles     value
1    O=C1Nc2ccccc2S/C1=C\c1ccc(C(F)(F)F)cc1  > 100 µM
2  O=C1c2ccc3c4c(ccc(c24)C(=O)N1CCCNCc1ccccc1F)C(=O)N(CCCNCc1ccccc1F)C3=O  0.767 µM
3      Cn1c([N+](=O)[O-])cnc1CN1CCN(CCO)CC1  > 100 µM
4  Cn1cc(C2=C(c3cn(C)c4cc(C(=O)O)ccc34)C(=O)NC2=O)c2ccccc21   > 25 µM
5  COc1ccc(/C=C2\CS(=O)(=O)C/C(=C\c3ccc(OC)cc3)C2=O)cc1   5.28 µM

----------
test system: DU-145 prostate; experiment: NCI tumour cell line growth inhibition, 48 h

MOLECULE	TGI
C=C1C(=O)O[C@H]2[C@H]1CC/C(COC(=O)NCc1[nH]nc3ccccc13)=C\CC[C@@]1(C)O[C@@H]21	3.03 µM
CO[C@]12CC(=O)C3(C(C[C@H]4CC5CCC6=CC(=O)CC[C@]6(OC(C)=O)C5C[C@@]43C)C1)C1C[C@H]3[C@@H]4CCC5=CC(=O)CC[C@]5(OC(C)=O)[C@H]4CC[C@]3(C)C12 (stereo not given in full)	> 100 µM
CC(=O)OCC1OC(OC2CCCC[Si](c3ccccc3)(c3ccccc3)O2)C(OC(C)=O)C(OC(C)=O)C1OC(C)=O (stereo not given)	> 100 µM
NS(=O)(=O)N(c1cc(C(F)(F)F)cc(C(F)(F)F)c1)C1CCN(Cc2ccc(C(F)(F)F)cc2)CC1	15.4 µM
CCN(CC)c1ccc2cc(C(=O)Nc3ccccc3OC)c(=N)oc2c1	> 100 µM
Cn1c2ccccc2c(=NNc2ccc(S(N)(=O)=O)cc2)c2ccccc21	> 50 µM
COC(=O)[C@](NC(=O)OCc1ccccc1)([C@@H](C)Sc1ccc(C)cc1)C(F)(F)F	> 100 µM
Clc1cccc(Cl)c1C(Nc1nncs1)Nc1nncs1	> 100 µM
Cc1ccc(NC(=S)C#N)cc1Cl	> 100 µM
CC1(C)CC2=C(SC3C=CC=CC3N2)C(=O)C1C(=O)C(N)=O (stereo not given)	> 100 µM
Nc1[nH]c(=O)nc2c1cnn2Cc1ccccc1	> 100 µM
N#Cc1nc(-c2cccnc2)oc1N	> 100 µM
Cc1cc(I)cc(CN(C)CCN(C)C)c1O	> 100 µM
O=[N+]([O-])c1cccc2nc3ccccc3c(NCCO)c12	0.00195 µM
CC(C)(C)C1=NC(=S)SC2=NC(=O)C3(NN21)c1ccccc1-c1ccccc13	> 10 µM
Cc1nn(-c2ccccc2)c(-n2ccnc2)c1/C=N/Nc1nc(-c2ccc(Cl)c(Cl)c2)cs1	13.3 µM
Cc1ccc(-c2c(C#N)c(N)[nH]c(=S)c2C#N)cc1	> 100 µM
CCN(CCCNC(=O)Cc1cc(=O)oc2cc(N(C)C)ccc12)CCNc1ccnc2cc(Cl)ccc12	47.7 µM
C=C(C)C[C@H](Sc1nc2ccccc2s1)[C@H](C)O	> 100 µM
CC1=C(C#N)C2C(=C(C)N1)C(N)=Nc1ccccc12 (stereo not given)	> 100 µM

----------
Each entry below lists one item and its recorded TGI value.
tested on: EKVX NSCLC; assay: NCI tumour cell line growth inhibition, 48 h
MEASUREMENT NAME: TGI

> print(dat)
                                    compound     value
 1  COc1ccc(NS(=O)c2ccc(Cl)cc2)cc1 (stereo not given)  > 100 µM
 2  CC1=C(C#N)C2C(=C(C)N1)C(N)=Nc1ccccc12 (stereo not given)   89.4 µM
 3  Cc1cc([N+](=O)[O-])c(C)c2c1[nH]c1ccc(O)cc12  > 100 µM
 4  COc1c(-c2nc3nc(N4CCN(C)CC4)ccc3[nH]2)cc(OC)c2c1nc(CO)n2C  > 100 µM
 5  COC(=O)[C@@H]1CCCN1C(=O)[C@@H]1CCCN1C(=O)[C@H](Cc1ccccc1)NC(=S)Nc1cc(C(F)(F)F)cc(C(F)(F)F)c1  > 100 µM
 6  Cn1cc2ccccc2c1-c1nc(F)nc(Oc2ccc3c(c2)CC[C@@H]2C3CC[C@@]3(C)C2CC[C@@H]3O)n1 (stereo not given in full)   37.3 µM
 7     COc1cccc(NC(=O)CC(=O)Nc2cccc(OC)c2)c1  > 100 µM
 8  O=C1c2cc3c(cc2[C@@H]2NC4CCCC14O2)OCO3 (stereo not given in full)  > 100 µM
 9      CC(C)(C)CC(C)(C)c1ccc(OCCSC(=N)N)cc1   2.98 µM
10  CCN(CC)CCn1c(N)c(-c2nc3ccccc3n2C)c2nc(C#N)c(C#N)nc21   20.5 µM

----------
system: IGROV1 ovarian; assay: NCI tumour cell line growth inhibition, 48 h
Each entry below lists one item and its recorded TGI value.
MEASUREMENT NAME: TGI

> print(dat)
                                    molecule      value
 1  O=C(CC1(O)C(=O)Nc2ccc([N+](=O)[O-])cc21)c1ccc2ccccc2c1 (configuration not stated)   > 100 µM
 2                    N#Cc1nc(-c2cccnc2)oc1N   > 100 µM
 3  CC(NC(=O)CNP(=O)(c1ccccc1)c1ccccc1)C(=O)NC(Cc1ccccc1)C(=O)OCc1ccccc1 (configuration not stated)   > 100 µM
 4  CNCCCNc1c2cc(OC)ccc2nc2cccc([N+](=O)[O-])c12   0.195 µM
 5  CCCn1c2c(c3ccccc3c1=O)C(=O)c1cc3c(cc1-2)OCO3   > 100 µM
 6  CCC#CCCCCCCCCC(F)C(=O)O (configuration not stated)   > 100 µM
 7  Cc1ccc(N=NC(=O)NNc2ccc(C)c([N+](=O)[O-])c2)cc1[N+](=O)[O-]   > 100 µM
 8  C=CCCC(=O)N1CCC(C(=O)OCC)C1=O (configuration not stated)   > 100 µM
 9  O=C1C(c2ccccc2)=C(c2ccccc2)C(c2ccc(-c3ccc(C4=C(c5ccccc5)C(=O)C(c5ccccc5)=C4c4ccccc4)cc3)cc2)=C1c1ccccc1   > 100 µM
10  O=C(Nc1cccc(-n2cc(-c3ccncc3)c(-c3ccc(Cl)c(O)c3)n2)c1)Nc1cccc(C(F)(F)F)c1  > 32.5 µM
11         CSc1nc(-c2ccccc2)c(C#N)c(=O)[nH]1   > 100 µM
12  CCC(/C=C(C)/C=C/C(=O)c1c(O)c(-c2ccc(O)cc2)c[nH]c1=O)CO (configuration not stated)    42.1 µM

----------
Each entry below lists one item and its recorded TGI value.
test system: M19-MEL melanoma; experiment: NCI tumour cell line growth inhibition, 48 h
MEASUREMENT NAME: TGI

> print(dat)
                                   molecule    assayed.target      value
1  COc1ccc(-c2nc3ccc([N+](=O)[O-])cc3c(=O)[nH]2)cc1  M19-MEL melanoma   > 100 µM
2  COC(=O)C12C3C4C1C1C2C3C41C(=O)O (centres undefined)  M19-MEL melanoma   > 100 µM
3      CCOC(=O)Cn1c(=O)n(C)c(=O)c2[nH]cnc21  M19-MEL melanoma   > 100 µM
4  C[C@]12CC[C@@H]3c4ccc(O)cc4CC[C@H]3[C@@H]1CC[C@@H]2OC(=O)CCC1CCCC1  M19-MEL melanoma    67.9 µM
5  Cc1nc(C(N)=S)sc1C(=O)CC(=O)C(=O)Nc1c(C(C)C)cccc1C(C)C  M19-MEL melanoma   > 100 µM
6  Cc1ccc(NC(=O)CC/C(CC(=O)C(C)(C)C)=N/Nc2nnc(C)n2N)cc1C  M19-MEL melanoma   > 100 µM
7             c1ccc(C(c2ccccc2)c2ccncc2)cc1  M19-MEL melanoma   > 100 µM
8  C[C@]12CCc3nonc3C1CC[C@@H]1C2CC[C@]2(C)C(=O)/C(=N\O)CC12 (some centres undefined)  M19-MEL melanoma   > 100 µM
9  CCOC(=O)NC(=O)c1cn(-c2ccc(CCOC(=O)NCCCCCCNC(=O)OCCc3ccc(-n4c(=O)[nH]cc(C(=O)NC(=O)OCC)c4=O)cc3)cc2)c(=O)[nH]c1=O  M19-MEL melanoma  > 94.8 µM

----------
Each entry below lists one item and its recorded TGI value.
system: SNB-19 CNS; experiment: NCI tumour cell line growth inhibition, 48 h
MEASUREMENT NAME: TGI

> print(dat)
                           structure.smiles     value
1  Cc1ccc(NC(=O)CC/C(CC(=O)C(C)(C)C)=N/Nc2nnc(C)n2N)cc1C  > 100 µM
2  CN(CCO)C1CCN(c2ccc(Nc3ncc4c5ccnc(F)c5n(C5CCCC5)c4n3)nc2)CC1   33.8 µM
3  Cc1nnc([S-])o1.[Au+].c1ccc([PH+](c2ccccc2)c2ccccc2)cc1   2.98 µM
4   Cn1cnc([N+](=O)[O-])c1Sc1nc2ncccc2[nH]1  > 100 µM
5      CCOC(=O)Cn1c(=O)n(C)c(=O)c2[nH]cnc21  > 100 µM
